Task for the reader: assign each of the following molecules its reported conversion to 1,5-cz-[Ln(Lig)], Tm^III.
- ASSAY_NOTES: Formation of 1,5-cz-[Ln(Lig)] from Lig and Ln^III ions (metal dependent click-zip), MOPS/NaOH buffer pH 7.0, analytical HPLC (Charts 1, 2)
- RECORDED_CONDITIONS: Tm^III; after 1 week at 80° C.; MOPS/NaOH buffer pH 7.0
Numbers only, in %.

[N-]=[N+]=NCc1cccc(CN2CCN(CC(=O)O)CCN(Cc3cccc(C#Cc4ccccc4)n3)CCN(CC(=O)O)CC2)n1 = 93
C#Cc1cccc(CN2CCN(CC(N)=O)CCN(Cc3cc(-c4ccccc4)cc(CN=[N+]=[N-])n3)CCN(CC(N)=O)CC2)n1 = 0
C#Cc1cccc(CN2CCN(CC(=O)O)CCN(Cc3cc(-c4ccc(C(=O)O)cc4)cc(CN=[N+]=[N-])n3)CCN(CC(=O)O)CC2)n1 = 94

State recorded conversion to 1,5-cz-[Ln(Lig)], Tm^III for all listed molecules.
1. C#Cc1cccc(CN2CCN(CP(=O)(O)c3ccccc3)CCN(Cc3cccc(CN=[N+]=[N-])n3)CCN(CP(=O)(O)c3ccccc3)CC2)n1
2. C#Cc1cccc(CN2CCN(CC(=O)O)CCN(Cc3cccc(CN=[N+]=[N-])n3)CCN(CP(=O)(O)O)CC2)n1
3. C#CCN(CC#C)CCN1CCN(CC(=O)O)CCN(Cc2cc(-c3ccccc3)cc(CN=[N+]=[N-])n2)CCN(CC(=O)O)CC1
4. C#Cc1cccc(CN2CCN(CC(=O)O)CCN(Cc3cccc(CN=[N+]=[N-])n3)CCN(CC(=O)O)CC2)n1
5. C#Cc1cccc(CN2CCN(CC(=O)NCC(=O)O)CCN(Cc3cc(-c4ccccc4)cc(CN=[N+]=[N-])n3)CCN(CC(=O)NCC(=O)O)CC2)n1
6. C#Cc1cccc(CN2CCN(CC(=O)O)CCN(Cc3cc(C(=O)OC)cc(CN=[N+]=[N-])n3)CCN(CC(=O)O)CC2)n1

[18, 94, 11, 95, 31, 0]

----------
- ASSAY_NOTES: Dissociation of chelates in aq. 6.0M HCl at 80° C. (acid decomplexation kinetic inertness) (Chart 17)
- Type: physicochemical
- RECORDED_CONDITIONS: 1 day
MEASURED_QUANTITY: fraction of intact chelate (%)
One number for each entry, in %.

O=C1C[N@@]2CC[N@]3CC[N@@](CC[N@](CC2)Cc2cccc(n2)-c2cnnn2Cc2cc(-c4ccccc4)cc(n2)C3)CC(=O)[O][Dy][O]1 [TD866] = 25
O=C1C[N@@]2CC[N@]3CC[N@@](CC[N@](CC2)Cc2cccc(n2)-c2cnnn2Cc2cc(-c4ccccc4)cc(n2)C3)CC(=O)[O][Cd][O]1 [TD880] = 0

State recorded fraction of intact chelate for all listed molecules.
1. O=C1C[N@@]2CC[N@]3CC[N@@](CC[N@](CC2)Cc2cccc(n2)-c2cnnn2Cc2cc(-c4ccccc4)cc(n2)C3)CC(=O)[O][Er][O]1 [TD865]
2. O=C1C[N@@]2CC[N@]3CC[N@@](CC[N@](CC2)Cc2cccc(n2)-c2cn(nn2)Cc2cc(-c4ccccc4)cc(n2)C3)CC(=O)[O][Lu][O]1 [TD874]
3. O=C1C[N@@]2CC[N@]3CC[N@@](CC[N@](CC2)Cc2cccc(n2)-c2cn(nn2)Cc2cc(-c4ccccc4)cc(n2)C3)CC(=O)[O][Gd][O]1 [TD875]
4. O=C1C[N@@]2CC[N@]3CC[N@@](CC[N@](CC2)Cc2cccc(n2)-c2cnnn2Cc2cc(-c4ccc(C(=O)O)cc4)cc(n2)C3)CC(=O)[O][Lu][O]1 [TD748]
5. O=P1(c2ccccc2)C[N@@]2CC[N@]3CC[N@@](CC[N@](CC2)Cc2cccc(n2)-c2cnnn2Cc2cccc(n2)C3)CP(=O)(c2ccccc2)[O][Gd][O]1 (stereo partly shown) [TD925]

1. 95
2. 0
3. 0
4. 100
5. 0

----------
- ASSAY_NOTES: Formation of 1,5-cz-[Ln(Lig)] from Lig and Ln^III ions (metal dependent click-zip), MOPS/NaOH buffer pH 7.0, analytical HPLC (Charts 1, 2)
- RECORDED_CONDITIONS: Lu^III; after 1 hour at 80° C.; MOPS/NaOH buffer pH 7.0
MEASURED_QUANTITY: conversion to 1,5-cz-[Ln(Lig)], Lu^III (%)
One number for each entry, in %.

# annotated cases, reported conversion to 1,5-cz-[Ln(Lig)], Lu^III shown
C#Cc1cccc(CN2CCN(CC(=O)O)CCN(Cc3cc(-c4ccc(C(=O)O)cc4)cc(CN=[N+]=[N-])n3)CCN(CC(=O)O)CC2)n1 = 66
C#Cc1cccc(CN2CCN(CC(=O)NCC(=O)O)CCN(Cc3cc(-c4ccccc4)cc(CN=[N+]=[N-])n3)CCN(CC(=O)NCC(=O)O)CC2)n1 = 26
C#Cc1cccc(CN2CCN(CC(N)=O)CCN(Cc3cc(-c4ccccc4)cc(CN=[N+]=[N-])n3)CCN(CC(N)=O)CC2)n1 = 5
C#Cc1cccc(CN2CCN(CC(=O)O)CCN(Cc3cc(-c4ccccc4)cc(CN=[N+]=[N-])n3)CCN(CC(=O)O)CC2)n1 = 64
CC(C)(N)C#Cc1cccc(CN2CCN(CC(=O)O)CCN(Cc3cc(-c4ccccc4)cc(CN=[N+]=[N-])n3)CCN(CC(=O)O)CC2)n1 = 63
C#CCN(CC#C)CCN1CCN(CC(=O)O)CCN(Cc2cc(-c3ccccc3)cc(CN=[N+]=[N-])n2)CCN(CC(=O)O)CC1 = 0
C#Cc1cccc(CN2CCN(CC(=O)O)CCN(Cc3cc(C(=O)OC)cc(CN=[N+]=[N-])n3)CCN(CC(=O)O)CC2)n1 = 26
[N-]=[N+]=NCc1cccc(CN2CCN(CC(=O)O)CCN(Cc3cccc(C#CC4CC4)n3)CCN(CC(=O)O)CC2)n1 = 5
C#Cc1cccc(CN2CCN(CC(=O)O)CCN(Cc3cc(C(=O)OC(C)(C)C)cc(CN=[N+]=[N-])n3)CCN(CC(=O)O)CC2)n1 = 3
[N-]=[N+]=NCc1cccc(CN2CCN(CC(=O)O)CCN(Cc3cccc(C#CC4CCNCC4)n3)CCN(CC(=O)O)CC2)n1 = 13

State recorded conversion to 1,5-cz-[Ln(Lig)], Lu^III for all listed compounds.
1. CC(C)(C)C#Cc1cccc(CN2CCN(CC(=O)O)CCN(Cc3cccc(CN=[N+]=[N-])n3)CCN(CC(=O)O)CC2)n1
2. C#Cc1cccc(CN2CCN(CC(=O)O)CCN(Cc3cc(N(C)C)cc(CN=[N+]=[N-])n3)CCN(CC(=O)O)CC2)n1
3. C#Cc1cccc(CN2CCN(CC(=O)O)CCN(Cc3cc(C(F)(F)F)cc(CN=[N+]=[N-])n3)CCN(CC(=O)O)CC2)n1

1: 6; 2: 85; 3: 54

----------
- ASSAY_NOTES: Dissociation of chelates in aq. 6.0M HCl at 80° C. (acid decomplexation kinetic inertness) (Chart 17)
- Assay type: physicochemical
- RECORDED_CONDITIONS: 1 hour
Task for the reader: assign each of the following compounds its reported fraction of intact chelate.
One number for each entry, in %.

# annotated cases, reported fraction of intact chelate shown
O=C1C[N@@]2CC[N@]3CC[N@@](CC[N@](CC2)Cc2cccc(n2)-c2cn(nn2)Cc2cc(-c4ccccc4)cc(n2)C3)CC(=O)[O][Lu][O]1 [TD874] = 0
O=C1C[N@@]2CC[N@]3CC[N@@](CC[N@](CC2)Cc2cccc(n2)-c2cnnn2Cc2cc(-c4ccccc4)cc(n2)C3)CC(=O)[O][Eu][O]1 [TD599] = 0

Now, please, on to the next compound.
Item: O=C1C[N@@]2CC[N@]3CC[N@@](CC[N@](CC2)Cc2cccc(n2)-c2cnnn2Cc2cc(-c4ccccc4)cc(n2)C3)CC(=O)[O][Gd][O]1 [TD527] | fraction of intact chelate: 2

----------
- ASSAY_NOTES: Dissociation of chelates in aq. 1.0M HCl at 80° C. (acid decomplexation kinetic inertness) (Chart 18)
- Type: physicochemical
- RECORDED_CONDITIONS: 1 hour
MEASURED_QUANTITY: fraction of intact chelate

# annotated cases, reported fraction of intact chelate shown
O=C1C[N@@]2CC[N@]3CC[N@@](CC[N@](CC2)Cc2cccc(n2)-c2cnnn2Cc2cc(-c4ccccc4)cc(n2)C3)CC(=O)[O][Y][O]1 = 100%
O=C([O-])CN1CCN2CCN(CC(=O)[O-])CCN(CC1)Cc1cccc(n1)-c1cnnn1Cc1cc(-c3ccccc3)cc(n1)C2.[Ca+2] = 0%
O=C1C[N@@]2CC[N@]3CC[N@@](CC[N@](CC2)Cc2cccc(n2)-c2cnnn2Cc2cc(-c4ccccc4)cc(n2)C3)CC(=O)[O][Er][O]1 = 100%

Now, please, on to the next compound.
Item: `O=C1C[N@@]2CC[N@]3CC[N@@](CC[N@](CC2)Cc2cccc(n2)-c2cnnn2Cc2cc(-c4ccccc4)cc(n2)C3)CC(=O)[O][Yb][O]1` | fraction of intact chelate: 100%
